// IC50 lookup, one value per entry
Biological target: I-A^d (Mus musculus, UniProt P01921+P04228)
Sequence (P04228 24-256): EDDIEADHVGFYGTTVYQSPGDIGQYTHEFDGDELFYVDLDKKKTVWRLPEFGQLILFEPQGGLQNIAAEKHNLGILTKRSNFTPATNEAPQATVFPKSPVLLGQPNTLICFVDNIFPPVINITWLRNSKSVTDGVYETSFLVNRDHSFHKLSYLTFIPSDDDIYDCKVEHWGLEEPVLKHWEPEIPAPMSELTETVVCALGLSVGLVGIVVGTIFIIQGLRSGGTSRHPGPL
Sequence (P01921 28-265): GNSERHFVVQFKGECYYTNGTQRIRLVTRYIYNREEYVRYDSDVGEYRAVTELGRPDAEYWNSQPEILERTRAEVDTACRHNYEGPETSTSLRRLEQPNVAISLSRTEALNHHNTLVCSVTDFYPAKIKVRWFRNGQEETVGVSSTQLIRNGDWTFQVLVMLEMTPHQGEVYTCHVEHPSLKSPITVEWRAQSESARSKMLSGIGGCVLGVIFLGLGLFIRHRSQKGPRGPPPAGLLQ
Assay: biochemical
Format: binding, BALB/c mouse
Details: Binding Assay IC50, I-A^d (membrane 15mers)
Readout Type: IC50

CC[C@H](C)[C@H](NC(=O)[C@@H](NC(=O)[C@@H](N)C(C)C)C(C)C)C(=O)N[C@@H](C)C(=O)N[C@@H](CC(C)C)C(=O)N[C@@H](CC(C)C)C(=O)N[C@H](C(=O)N[C@@H](CC(C)C)C(=O)N[C@@H](C)C(=O)N[C@H](C(=O)NCC(=O)N1CCC[C@H]1C(=O)N[C@@H](C)C(=O)N[C@@H](Cc1ccc(O)cc1)C(=O)N[C@@H](CO)C(=O)O)C(C)C)C(C)C    0.38 µM
CC[C@H](C)[C@H](NC(=O)[C@@H](NC(=O)[C@H](CC(C)C)NC(=O)[C@H](C)NC(=O)[C@@H](NC(=O)[C@@H](NC(=O)[C@H](C)NC(=O)[C@H](Cc1ccccc1)NC(=O)[C@@H](N)Cc1ccccc1)C(C)C)[C@@H](C)O)[C@@H](C)O)C(=O)N[C@@H](C)C(=O)N[C@@H](Cc1ccc(O)cc1)C(=O)N[C@@H](CC(C)C)C(=O)N[C@H](C(=O)NCC(=O)N[C@@H](CO)C(=O)O)C(C)C    6.21 µM
CSCC[C@H](NC(=O)[C@H](CCCNC(=N)N)NC(=O)CNC(=O)[C@@H](NC(=O)[C@H](CCSC)NC(=O)[C@H](Cc1c[nH]c2ccccc12)NC(=O)[C@H](CCCCN)NC(=O)[C@H](CCC(=O)O)NC(=O)[C@H](CCC(N)=O)NC(=O)[C@H](CCCNC(=N)N)NC(=O)[C@@H](NC(=O)[C@@H](N)CCCCN)[C@@H](C)O)[C@@H](C)O)C(=O)NCC(=O)N[C@@H](CCC(=O)O)C(=O)N[C@@H](CCCNC(=N)N)C(=O)O    1.9 µM
CC[C@H](C)[C@H](NC(=O)[C@H](CCCCN)NC(=O)[C@H](CCC(N)=O)NC(=O)[C@@H](N)CC(C)C)C(=O)N[C@@H](CCC(=O)O)C(=O)N[C@@H](CCCNC(=N)N)C(=O)N[C@@H](Cc1c[nH]c2ccccc12)C(=O)N[C@@H](Cc1ccccc1)C(=O)N[C@H](C(=O)N[C@@H](CCCNC(=N)N)C(=O)N[C@@H](CC(N)=O)C(=O)N1CCC[C@H]1C(=O)N[C@@H](Cc1ccccc1)C(=O)N[C@@H](Cc1ccccc1)C(=O)N[C@@H](C)C(=O)O)C(C)C    0.593 µM

Numbers sourced from paper PMC2615555.
